Taken from patent US20190308988A1.

Assay: Solubility determination in oil (Table 10)
Conditions: 40 °C, oil or lipid, thermodynamic from solid, Approximate Solubility in Excipient: Cottonseed oil, Heating Temp. 40 °C, Obs. Temp. 40 °C

| Compound Structure String | solubility |
| --- | --- |
| C=C1CC[C@@]2(O)C3Cc4ccc(OC(=O)OCCCCCCCC)c5c4[C@@]2(CCN3CC2CC2)[C@H]1O5 | > 416 mg/mL |
| C=C1CC[C@@]2(O)C3Cc4ccc(OC(=O)CCCCCCCCCCCCCCCCC)c5c4[C@@]2(CCN3CC2CC2)[C@H]1O5 | 100 to 120 mg/mL |
| C=C1CC[C@@]2(O)C3Cc4ccc(OC(=O)CCCCCCCCCCCCCCCCCCC)c5c4[C@@]2(CCN3CC2CC2)[C@H]1O5 | 57 to 67 mg/mL |
| O=C(CCC1CCCC1)Oc1ccc2c3c1O[C@H]1C(=O)CC[C@@]4(O)C(C2)N(CC2CC2)CC[C@]314 | < 50 mg/mL |

---

Assay: Liver S9 fraction stability, monkey
Format: in vitro ADME, cynomolgus monkey
Conditions: monkey liver S9 1.0 mg/ml, 2 μM, 37° C.
Parameter: % remaining at 60 minutes, Monkey

| Molecule | Test Result |
| --- | --- |
| C=C1CC[C@@]2(O)C3Cc4ccc(OCOC(=O)OCCCCCCCCCCCC)c5c4[C@@]2(CCN3CC2CC2)[C@H]1O5 [Compound 24] | 3% |
| C=C1CC[C@@]2(O)C3Cc4ccc(OC(=O)OCCCCCCCCCCCC)c5c4[C@@]2(CCN3CC2CC2)[C@H]1O5 [Compound 6] | 0% |
| CCCCCCCCCCCCCCCC(=O)OC1CCCn2c1nc(C)c(CCN1CCC(c3noc4cc(F)ccc34)CC1)c2=O (centres unmarked) [Paliperidone palmitate, reference compound] | 57.4% |
| C=C1CC[C@@]2(O)C3Cc4ccc(OC(=O)CCCCCCC/C=C/CCCCCCCC)c5c4[C@@]2(CCN3CC2CC2)[C@H]1O5 [Compound 15] | 76.7% |
| CCCCCCCCCCCC(=O)OCN1C(=O)CCc2ccc(OCCCCN3CCN(c4cccc(Cl)c4Cl)CC3)cc21 [Aripiprazole lauroxil, reference compound] | 56.6% |

---

Assay: Solubility determination in oil (Table 10)
Settings: water, thermodynamic from solid, Equilibrium solubility: Water, after slurry in EtOAc; temperatures N/A
Protocol: A known amount of test substance (˜40 mg) was weighed into the vial, 100 μL of oil was added and heated to 60° C. and then system was slurried to reach equilibrium. […] Extra oil was added into the vial once compound precipitated out and then the system was re-equilibrated at 1000 rpm at room temperature (25° C.). Final concentration was determined by HPLC method as described below in Table 6a and 6b.
Listed molecules paired with reported solubility thermodynamic
Parameter: solubility thermodynamic

| Molecule | Test Result |
| --- | --- |
| CCCCCCCCCCCCCCCC(=O)Oc1ccc2c3c1O[C@H]1C(=O)CC[C@@]4(O)C(C2)N(CC2CC2)CC[C@]314 [Compound 55] | < 0.5 µg/mL |
| C=C1CC[C@@]2(O)C3Cc4ccc(OC(=O)CCCCCCCCCCCCCCCCCCCCC)c5c4[C@@]2(CCN3CC2CC2)[C@H]1O5 [Compound 14] | < 0.5 µg/mL |

---

Experiment: Rat pharmacokinetic studies, intramuscular administration
Format: in vivo, male Sprague Dawley Rats
Conditions: male, Sprague Dawley, rat, plasma, im; 123 mg/kg, Cottonseed oil + 1% Benzyl Alcohol; read-out: AUC0-inf (ng · h/mL) prodrug
Parameter: AUC(0-inf) (ng·h/mL)

| Compound Structure String | Test Result |
| --- | --- |
| C=C1CC[C@@]2(O)C3Cc4ccc(OCOC(=O)OCCCCCCCCCCCC)c5c4[C@@]2(CCN3CC2CC2)[C@H]1O5 | 547 |
